# Test system: ACHN renal
# Measurement protocol: NCI-60 one-dose screen, 48 h
# Recorded conditions: 10 µM unless noted
Compounds without any hit were thinned out: in the full panel of roughly 83,000, 20% have a hit. The source made the active and inactive calls. How the source made its calls: active means growth percent below 10; inactive means the rest.
Respond with a class label; see 1 for active, -1 for inactive

INPUT: For N=c1ccn2c(n1)O[C@@H]1[C@@H](O)[C@H](CO)O[C@@H]12 , which call appears in the assay record?
OUTPUT: -1

INPUT: Another molecule to look at: Clc1cc(Cl)c(OCC#CI)cc1Cl
OUTPUT: 1

---

# Tested on: SK-MEL-5 melanoma
# Measurement protocol: NCI-60 one-dose screen, 48 h (100 = growth as untreated, 0 = no growth, -100 = all killed)
# Recorded conditions: 10 µM unless noted
About 83,000 compounds went through this panel and 20% of them were active in at least one assay; those are over-represented in the sample as a whole.
List of growth values.
Unit % implied. Number only.

Solved cases below.
Molecule	Assay system	growth, %
Cc1[nH]n(C(N)=S)c(=O)c1N=Nc1ccc(F)c(Cl)c1	SK-MEL-5 melanoma	95
O=c1[nH]c(=O)n(C2CC(O)C(CO)O2)cc1C(F)(F)F (configuration not stated)	SK-MEL-5 melanoma	29.8
O=C1N(C2CCCCC2)C(=O)N1C1CCCCC1	SK-MEL-5 melanoma	16.9

INPUT: I have this molecule here, CCCCCCCCCCCCNc1ncnc2[nH]ncc12 , and I need its recorded growth.
OUTPUT: 36.1

INPUT: Another molecule to look at: CCOC(Cc1c(N)[nH]c(=S)[nH]c1=O)OCC
OUTPUT: 95.5

INPUT: Another molecule to look at: COc1ccc2nc(NC(=O)c3cc(-c4ccc(F)cc4)n4nc(-c5ccccc5)cc4n3)sc2c1
OUTPUT: 55.5

INPUT: Another molecule to look at: Clc1cccc(Cc2cn3cc(-c4ccccc4)nc3s2)c1
OUTPUT: 2.66

INPUT: Another molecule to look at: c1cncc(CNc2ccccc2-c2nnc(Nc3ccc4c(c3)OCO4)o2)c1
OUTPUT: -4.21

INPUT: Another molecule to look at: CCCCC(C#N)C(N)=O (configuration not stated)
OUTPUT: 107

INPUT: Another molecule to look at: Cc1c(C)c(N2C(=O)C=CC2=O)c(C)c(C)c1N1C(=O)C=CC1=O
OUTPUT: 109

INPUT: Another molecule to look at: O=C(Nc1nc(-c2ccc(Cl)cc2)cs1)c1cc(O)c(O)c(O)c1
OUTPUT: 24.6

INPUT: Another molecule to look at: Cc1ccc([N+](=O)[O-])cc1NC(=O)Nc1cccc(F)c1
OUTPUT: 60.5

---

# System: HS 578T breast
# Measurement protocol: NCI-60 one-dose screen, 48 h
# Recorded conditions: 10 µM unless noted
The panel holds about 83,000 compounds, 20% with a hit somewhere; the sample as a whole holds those more often. Active and inactive are the calls of the source. Rule for the calls: active = growth percent below 10; inactive = the rest.
Respond with a class label; see active, inactive

Solved entries (count: 3):
O=C(c1nn(-c2ccc(Cl)cc2)cc1O)n1nc(C(F)(F)F)cc1-c1ccccc1 inactive
ClC1=C(Cl)C(=C2C(Cl)=C(Cl)C(Cl)=C2Cl)C(Cl)=C1Cl inactive
O=C1NC(=O)/C(=C\c2ccccc2)C2=C1CCCC2 inactive

INPUT: For [O-]/[N+](=C\C=C\c1ccccc1)c1ccccc1 , which call appears in the assay record?
OUTPUT: inactive

INPUT: Another compound to look at: COc1ccc(C(=O)Nc2nc(-c3ccc(Cl)cc3)cs2)cc1
OUTPUT: inactive

INPUT: Another compound to look at: COc1ccc2[nH]cc(/C=C3/C(=O)Nc4ccc(F)cc43)c2c1
OUTPUT: inactive

---

# Test system: SK-MEL-28 melanoma
# Measurement protocol: NCI-60 one-dose screen, 48 h (100 = growth as untreated, 0 = no growth, -100 = all killed)
# Recorded conditions: 10 µM unless noted
This is part of a sample that, as a whole, favours compounds with a hit. Of some 83,000 tested, about 20% had one in any assay.
Criterion: growth meeting or surpassing 80%. Met: 1 (yes). Not met: 0 (no).

Solved entries (count: 6):
Compound	Group
CCC(C)(C)C(=O)O[C@H]1C[C@@H](C)C=C2C=C[C@H](C)[C@H](CC[C@@H]3C[C@@H](O)CC(=O)O3)[C@H]21	0 (no)
COc1ncc(-c2ccc3nccc(C#CCN4CCN(S(C)(=O)=O)CC4)c3c2)cc1NS(=O)(=O)c1ccc(F)cc1F	0 (no)
COc1cc(/C=C/C(=O)c2c(-c3ccc(Cl)cc3)nc3sc(C)nn23)cc(OC)c1OC	1 (yes)
O=C(/C=C/c1ccccc1)CC(c1ccccc1)N1CCOCC1 (configuration not stated)	1 (yes)
CCC(C)CC(CC)NCCN1CCN(C(CC)CC(C)CC)C1=S (configuration not stated)	0 (no)
CCOC(=O)C1=C(COCCN)NC(C)=C(C(=O)OC)C1c1ccccc1Cl (configuration not stated)	0 (no)

INPUT: Does the reported growth for Nc1nc(Cl)c2[nH]cnc2n1 fall at or above the 80% mark?
OUTPUT: 1 (yes)

INPUT: Another compound to look at: Cc1nn(-c2ccc(Cl)cc2)c2nc3c(nc12)C(=O)C(=O)c1ccccc1-3
OUTPUT: 0 (no)

INPUT: Another compound to look at: O=C(O)C(=O)O
OUTPUT: 1 (yes)

INPUT: Another compound to look at: NCCCc1nnc(CCC(=O)c2nc3ccccc3[nH]2)o1
OUTPUT: 1 (yes)

INPUT: Another compound to look at: CC[N+](CC)(CCOCCOCC[N+](CC)(CC)Cc1ccc([N+](=O)[O-])cc1)Cc1ccc([N+](=O)[O-])cc1
OUTPUT: 1 (yes)

INPUT: Another compound to look at: CCOC(=O)C(Cc1ccccc1)(C(=O)OCC)C(Br)C(=O)c1ccccc1 (configuration not stated)
OUTPUT: 1 (yes)

INPUT: Another compound to look at: ClC1=C(Cl)C(Cl)=C(Cl)C1=Cc1ccc(Cl)cc1
OUTPUT: 1 (yes)

INPUT: Another compound to look at: O=C(Nc1ccc(Cl)cc1)Nc1ccc(Oc2nncc3ccccc23)cc1
OUTPUT: 0 (no)

INPUT: Another compound to look at: O=C(Nc1ccc(Cl)cc1)c1cc2c(cc1O)[nH]c1ccccc12
OUTPUT: 0 (no)

INPUT: Another compound to look at: O=C1/C(=C/c2ccc([N+](=O)[O-])o2)Oc2ccc(Br)cc21
OUTPUT: 0 (no)

INPUT: Another compound to look at: COc1cc(/C=C2\COc3ccc(O)c(O)c3C2=O)cc(OC)c1
OUTPUT: 0 (no)

INPUT: Another compound to look at: CC[N+](C)(CC)CCCC(C)Nc1ccnc2cc(Cl)ccc12 (configuration not stated)
OUTPUT: 1 (yes)

INPUT: Another compound to look at: O=C(/C=C/c1cc2ccccc2[nH]c1=O)c1ccc(O)cc1
OUTPUT: 1 (yes)

INPUT: Another compound to look at: CCCCCCC(C)(O)c1ccccc1 (configuration not stated)
OUTPUT: 1 (yes)

INPUT: Another compound to look at: CC(C)c1ccc(C(=O)Nc2sc3c(CN(C)C)c(O)ccc3c2C(N)=O)cc1
OUTPUT: 1 (yes)

INPUT: Another compound to look at: COc1ccc(OC)c2c1[nH]c(=O)c1c3ccccc3cn21
OUTPUT: 0 (no)

---

# Tested on: TK-10 renal
# Measurement protocol: NCI-60 one-dose screen, 48 h (100 = growth as untreated, 0 = no growth, -100 = all killed)
# Recorded conditions: 10 µM unless noted
Compounds without any hit were thinned out: in the full panel of roughly 83,000, 20% have a hit.
List of growth values.
Unit % implied. Number only.

Solved cases below.
Compound	growth [%]
Nc1nonc1-c1nc2ccccc2n1CC(=O)Nc1ccc2c(c1)COC2=O	94.7
Cc1c(N(C)CS(=O)(=O)O)c(=O)n(-c2ccccc2)n1C	108
CCCCCCCCCCCCCCCCN=C(CC(=O)O)C(=O)O	83.9
Nc1nc(N)c([N+](=O)[O-])c(=O)[nH]1	94.6
O=C(NCCCO)c1cc(Cl)ccc1O	24.9
CCOc1ccccc1C(=O)OCC(=O)Nc1cccc(S(=O)(=O)N(C)C)c1	169
COc1ccc2nc(-c3ccc(-n4cncc4-c4ccc(OC)c(N)c4)cc3)sc2c1	114
O=C1Cc2cc(CCN3CCN(CCOCCO)CC3)c(Cl)cc2N1Cc1ccc(-c2ccccc2-c2nn[nH]n2)cc1	111

INPUT: I have this compound here, CCOC(=O)c1c(NC(=O)C2CCCCC2C(=O)O)sc2c1CCCC2 (stereo not given) , and I need its recorded growth.
OUTPUT: 113

INPUT: Another compound to look at: COc1ccc(C2CC(c3ccc(OC)c(OC)c3)=NN2C(=O)c2cc(OC)c(OC)c(OC)c2)cc1 (stereo not given)
OUTPUT: 18.4
